Measured values drawn from patent US9115092B2 for this set.

pIC50: −log10 of the molar value.
Dear all, this message contains pIC50 results, target or system mTOR kinase (Homo sapiens, UniProt P42345).

chemical smiles: CN(C)C(=O)c1ccc(NC(=O)Nc2ccc(-c3nc(N4CCOCC4)c4cc(F)c(-c5cnn(C)c5)cc4n3)cc2F)cc1
pIC50: > 7.30

Could I get pIC50 for every one of these entries?
1. CN(C)C(=O)c1ccc(NC(=O)Nc2ccc(-c3nc(N4CCOCC4)c4cc(F)c(-c5cncnc5)cc4n3)c(F)c2)cc1
2. CN(C)C(=O)c1ccc(NC(=O)Nc2ccc(-c3nc(N4CCOCC4)c4ccc(-c5cccnc5F)cc4n3)cc2)cn1
3. CN(C)C(=O)c1ccc(NC(=O)Nc2ccc(-c3nc(N4CCOCC4)c4ccc(-c5cccnc5F)cc4n3)cc2)cc1
4. COc1ccc(-c2ccc3c(N4CCOCC4)nc(-c4ccc(NC(=O)Nc5ccc(C(=O)N(C)C)cc5)cc4F)nc3c2)cn1
5. CN(C)C(=O)c1ccc(NC(=O)Nc2ccc(-c3nc(N4CCOCC4)c4ccc(-c5ccc(CO)o5)cc4n3)cc2F)cc1
6. CN(C)CCN(C)C(=O)c1ccc(NC(=O)Nc2ccc(-c3nc(N4CCOCC4)c4ccc(-c5ccco5)cc4n3)cc2)cc1

Response given:
6.70 to 7.30
> 7.30
> 7.30
6.70 to 7.30
> 7.30
> 7.30

---

test system: PC3 cells; experiment: XTT assay for cell viability, PC3 cells; format: cell-based, human; settings: Homo sapiens, PC-3, cell viability
pIC50: −log10 of the molar value.
property name: pIC50

Worked examples, 3 compounds total:
compound: CN(C)[C@@H]1CCN(C(=O)c2ccc(NC(=O)Nc3ccc(-c4nc(N5CCOCC5)c5ncc(-c6cnn(C)c6)cc5n4)cc3)cc2)C1 [Example 184]
property name: pIC50
recorded measurement: 5.00 to 6.70
//
compound: CN(C)C(=O)c1ccc(NC(=O)Nc2ccc(-c3nc(N4CCOCC4)c4ccc(-c5ccccn5)cc4n3)cc2)cc1F [Example 267]
property name: pIC50
recorded measurement: 5.00 to 6.70
//
compound: CN(C)C(=O)c1ccc(NC(=O)Nc2ccc(-c3nc(N4CCOCC4)c4ncc(-c5cnn(C)c5)cc4n3)cc2F)cc1 [Example 82]
property name: pIC50
recorded measurement: 5.00 to 6.70

Could I get pIC50 for every one of these entries?
1. Cc1ccncc1-c1cnc2c(N3CCOCC3)nc(-c3ccc(NC(=O)Nc4ccc(C(=O)N(C)C)cc4)cc3)nc2c1 [Example 93]
2. CN(C)C(=O)c1ccc(NC(=O)Nc2ccc(-c3nc(N4CCOCC4)c4ccc(-c5cncnc5)cc4n3)c(F)c2F)cc1 [Example 280]
3. CC(O)c1ccc(-c2ccc3c(N4CCOCC4)nc(-c4ccc(NC(=O)Nc5ccc(C(=O)N(C)C)cc5)c(F)c4)nc3c2)o1 (stereo not shown) [Example 214]

Response given:
1: 5.00 to 6.70; 2: > 7.00; 3: > 7.00

Challenge: For the compound CN(C)C(=O)c1ccc(NC(=O)Nc2ccc(-c3nc(N4CCOCC4)c4ccc(-c5cccs5)cc4n3)cc2)cc1 [Example 74] , give its measured pIC50 value.
Response given: 5.30 to 6.30

---

tested on: pAKT(T308) (phosphorylated at threonine 308), PC3 cells; assay: In-cell Western assay, pAKT(T308) in PC3 cells; format: cell-based; conditions: Homo sapiens, PC-3, In-cell Western
pIC50: −log10 of the molar value.
Kindly state pIC50 for each of the entries shown.

Worked examples, 6 compounds total:
chemical smiles: CC(=O)Nc1ccc(NC(=O)Nc2ccc(-c3nc(N4CCOCC4)c4ccc(-c5cncnc5)cc4n3)cc2)cc1
pIC50: 5.30 to 6.30
//
chemical smiles: COc1ncc(-c2ccc3c(N4CCOCC4)nc(-c4ccc(NC(=O)Nc5ccc(C(=O)N(C)C)cc5F)cc4)nc3c2)cn1
pIC50: 5.00 to 6.70
//
chemical smiles: CN(C)C(=O)c1ccc(NC(=O)Nc2ccc(-c3nc(N4CCOCC4)c4ccc(-c5cnn(C)c5)cc4n3)cc2)cc1
pIC50: 6.30 to 7.00
//
chemical smiles: CN(C)C(=O)c1ccc(NC(=O)Nc2ccc(-c3nc(N4CCOCC4)c4ccc(-c5cccnc5F)cc4n3)cc2)c(F)c1
pIC50: > 7.00
//
chemical smiles: CN(C)C(=O)c1ccc(NC(=O)Nc2ccc(-c3nc(N4CCOCC4)c4cc(F)c(-c5cnn(C)c5)cc4n3)cc2)cc1
pIC50: 6.30 to 7.00
//
chemical smiles: CN1CCN(C(=O)c2ccc(NC(=O)Nc3ccc(-c4nc(N5CCOCC5)c5ccc(-c6cccnc6)cc5n4)cc3)cc2)CC1
pIC50: 6.30 to 7.00

Challenge: For the compound Cc1ccc(-c2ccc3c(N4CCOCC4)nc(-c4ccc(NC(=O)Nc5ccc(C(=O)N(C)C)cc5)cc4)nc3c2)o1 , give its measured pIC50 value.
Response given: 6.30 to 7.00

---

system: PC3 cells; test: XTT assay for cell viability, PC3 cells; format: cell-based, human; details: Homo sapiens, PC-3, cell viability
property name: IC50

Worked examples, 3 molecules total:
chemical smiles: CN1CCN(C(=O)c2ccc(NC(=O)Nc3ccc(-c4nc(N5CCOCC5)c5ccc(-c6cccnc6F)cc5n4)cc3)cc2)CC1
target under test: PC3 cells
IC50: < 0.1 µM
//
chemical smiles: CN(C)C(=O)c1ccc(NC(=O)Nc2ccc(-c3nc(N4CCOCC4)c4cc(F)c(-c5cccnc5)cc4n3)cc2)cc1
target under test: PC3 cells
IC50: < 0.1 µM
//
chemical smiles: CN(C)C(=O)c1ccc(NC(=O)Nc2ccc(-c3nc(N4CCOCC4)c4ccc(-c5cccnc5F)cc4n3)cc2F)cc1
target under test: PC3 cells
IC50: 0.201 to 10 µM

# input for lookup
Challenge: For the molecule Cc1noc(C)c1-c1ccc2c(N3CCOCC3)nc(-c3ccc(NC(=O)Nc4ccc(C(=O)N(C)C)c(F)c4)cc3)nc2c1 , give its measured IC50 value.
Response given: 0.201 to 10 µM

---

Kindly state pIC50 for each of the entries shown.
tested on: PC3 cells; test: XTT assay for cell viability, PC3 cells; assay type: cell-based, human; details: Homo sapiens, PC-3, cell viability
pIC50: −log10 of the molar value.

Worked examples, 8 compounds total:
chemical smiles: CN(C)C(=O)c1ccc(NC(=O)Nc2ccc(-c3nc(N4CCOCC4)c4ccc(-c5cccnc5)cc4n3)cc2)c(F)c1
recorded measurement: > 7.00
--
chemical smiles: CN(C)C(=O)c1ccc(NC(=O)Nc2ccc(-c3nc(N4CCOCC4)c4cc(F)c(-c5cncc(S(C)(=O)=O)c5)cc4n3)cc2)cc1
recorded measurement: > 7.00
--
chemical smiles: COc1ncc(-c2ccc3c(N4CCOCC4)nc(-c4ccc(NC(=O)Nc5ccc(C(=O)N(C)C)cc5)cc4)nc3c2)cn1
recorded measurement: > 7.00
--
chemical smiles: CN(C)C1CCN(C(=O)c2ccc(NC(=O)Nc3ccc(-c4nc(N5CCOCC5)c5ccc(-c6cccnc6F)cc5n4)cn3)cc2)CC1
recorded measurement: 5.30 to 6.30
--
chemical smiles: Cc1ccc(-c2ccc3c(N4CCOCC4)nc(-c4ccc(NC(=O)Nc5ccc(C(=O)N(C)C)cc5)cc4)nc3c2)o1
recorded measurement: > 7.00
--
chemical smiles: COc1ccc2c(N3CCOCC3)nc(-c3ccc(NC(=O)Nc4ccc(C(=O)N(C)C)cc4)cc3)nc2c1
recorded measurement: 5.00 to 6.70
--
chemical smiles: CN(C)C(=O)c1ccc(NC(=O)Nc2ccc(-c3nc(N4CCOCC4)c4ccc(-c5ccc(C#N)o5)cc4n3)cc2)cc1
recorded measurement: 5.00 to 6.70
--
chemical smiles: Cc1ccc(-c2cc3nc(-c4ccc(NC(=O)Nc5ccc(C(=O)N(C)C)cc5)cc4)nc(N4CCOCC4)c3cc2F)o1
recorded measurement: > 7.00

Could I get pIC50 for every one of these entries?
1. CN(C)C(=O)c1ccc(NC(=O)Nc2ccc(-c3nc(N4CCOCC4)c4ncc(-c5cnn(C)c5)cc4n3)cc2F)cn1
2. CN(C)C(=O)c1ccc(NC(=O)Nc2ccc(-c3nc(N4CCOCC4)c4ccc(-c5ccsc5)cc4n3)cc2)cc1
3. CN(C)C1CCN(C(=O)c2ccc(NC(=O)Nc3ccc(-c4nc(N5CCOCC5)c5ccc(C(C)(C)O)cc5n4)cc3)cc2)CC1
4. CN(C)C(=O)c1ccc(NC(=O)Nc2ccc(-c3nc(N4CCOCC4)c4ncc(-c5cccnc5F)cc4n3)c(F)c2)cc1
5. Cc1ccncc1-c1cnc2c(N3CCOCC3)nc(-c3ccc(NC(=O)Nc4ccc(C(=O)N(C)C)cc4)c(F)c3)nc2c1

Response given:
["5.00 to 6.70", "6.30 to 7.00", "5.00 to 6.70", "5.00 to 6.70", "5.30 to 6.30"]

---

system: PC3 cells; experiment: XTT assay for cell viability, PC3 cells; assay type: cell-based, human; details: Homo sapiens, PC-3, cell viability
pIC50: −log10 of the molar value.
Kindly state pIC50 for each of the entries shown.

molecule: CNC(=O)c1ccc(NC(=O)Nc2ccc(-c3nc(N4CCOCC4)c4ccc(-c5cncnc5)cc4n3)cc2)cc1
target under test: PC3 cells
property name: pIC50
recorded measurement: 5.00 to 6.70

molecule: CC(=O)Nc1cncc(-c2ccc3c(N4CCOCC4)nc(-c4ccc(NC(=O)Nc5ccc(C(=O)N(C)C)cc5)cc4)nc3c2)c1
target under test: PC3 cells
property name: pIC50
recorded measurement: 6.30 to 7.00

molecule: CN(C)C(=O)c1ccc(NC(=O)Nc2ccc(-c3nc(N4CCOCC4)c4ncc(-c5cnn(C)c5)cc4n3)cc2)c(F)c1
target under test: PC3 cells
property name: pIC50
recorded measurement: 5.00 to 6.70

Could I get pIC50 for every one of these entries?
1. CN(C)C(=O)c1ccc(NC(=O)Nc2ccc(-c3nc(N4CCOCC4)c4ncc(-c5cccnc5)cc4n3)cc2F)cc1
2. CN(C)C1CCN(C(=O)c2ccc(NC(=O)Nc3ccc(-c4nc(N5CCOCC5)c5ncc(-c6cccnc6F)cc5n4)cc3F)cc2)C1 (stereo in doubt)

Response given:
1. 5.00 to 6.70
2. 5.00 to 6.70
